- test method notes: budding yeast growth changes without added modifier – OD600, strain BY4716, 24 h, basal condition, primary screen (AID 1173)
- condition label: S. cerevisiae BY4716 growth, OD600, 24 h; higher = more signal, called active from +8 up or from −8 down
Assign fulfilled to entries whose z-score meets or exceeds -0.3; assign not fulfilled to the rest.

Exercise: Check if z-score >= -0.3 (inclusive). Item: Cc1ccc(S(=O)(=O)N2CC(C(=O)O)=CCC2c2ccccc2)cc1 (configuration not stated)
Solution: fulfilled

Exercise: Check if z-score >= -0.3 (inclusive). Item: O=C1OCC=C[C@H]2OC34C=CCN(c5ccc(Cl)cc5)C(=O)[C@H]3N(CCCO)C(=O)[C@@H]4[C@@H]12 (some centres not stated)
Solution: not fulfilled

Exercise: Check if z-score >= -0.3 (inclusive). Item: `COCCCNC(=O)[C@@]1(Sc2ccc(C)cc2)CC(=O)N(Cc2ccccc2)[C@@H]1c1ccc(CO)cc1`
Solution: fulfilled

Exercise: Check if z-score >= -0.3 (inclusive). Item: `C=CCOC(=O)[C@H]1[C@@H]2C(=O)O[C@@H](c3ccccc3)[C@@H](c3ccccc3)N2[C@@H](c2ccc(OCCOC(=O)[C@@H]3C[C@@H]4C(=O)NCC(=O)N4[C@@H]3c3ccc(O)cc3)cc2)[C@]12C(=O)Nc1ccc(I)cc12`
Solution: fulfilled

Exercise: Check if z-score >= -0.3 (inclusive). Item: `COc1ccc(CCNC(=O)[C@@]2(C)c3ccccc3C(=O)N(Cc3ccccc3)[C@H]2c2ccc(CO)cc2)cc1`
Solution: not fulfilled

Exercise: Check if z-score >= -0.3 (inclusive). Item: CC1(C)C(=O)C(c2ccccc2)=C2CN3C(=O)N(CCc4ccccc4)C(=O)C3(Cc3ccccc3)C=C21 (configuration not stated)
Solution: fulfilled

Exercise: Check if z-score >= -0.3 (inclusive). Item: CC1CC/C=C\[C@H]2OC34C=CCN(c5ccc6ccccc6c5)C(=O)[C@H]3N(CCCCCO)C(=O)[C@@H]4C2C(=O)O1 (some centres not stated)
Solution: not fulfilled

These entries and their values trace back to PubChem BioAssay.
